# tested_system: Neuronal acetylcholine receptor subunit alpha-7 (Rattus norvegicus)
# assay_details: Displacement of [3H]alpha-bungarotoxin form alpha7 nAChR in rat cortex
pKi: −log10 of the molar value.
Cut-off 8 on pKi, inclusive. At or above means t; below means f.

| compound_smiles | tested_system | assigned_category |
| --- | --- | --- |
| Brc1ccc(N2CC3CC(C2)N3)cn1 | Neuronal acetylcholine receptor subunit alpha-7 (Rattus norvegicus) | f |

Okay, next one:
(Q) Given the entry `Clc1ccc(N2CC3CC(C2)N3)nn1` , answer whether its pKi meets or surpasses 8.
(A) f

---

# tested_system: Neuronal acetylcholine receptor subunit alpha-7 (Rattus norvegicus, UniProt Q05941)
# Sequence (Q05941 whole entry): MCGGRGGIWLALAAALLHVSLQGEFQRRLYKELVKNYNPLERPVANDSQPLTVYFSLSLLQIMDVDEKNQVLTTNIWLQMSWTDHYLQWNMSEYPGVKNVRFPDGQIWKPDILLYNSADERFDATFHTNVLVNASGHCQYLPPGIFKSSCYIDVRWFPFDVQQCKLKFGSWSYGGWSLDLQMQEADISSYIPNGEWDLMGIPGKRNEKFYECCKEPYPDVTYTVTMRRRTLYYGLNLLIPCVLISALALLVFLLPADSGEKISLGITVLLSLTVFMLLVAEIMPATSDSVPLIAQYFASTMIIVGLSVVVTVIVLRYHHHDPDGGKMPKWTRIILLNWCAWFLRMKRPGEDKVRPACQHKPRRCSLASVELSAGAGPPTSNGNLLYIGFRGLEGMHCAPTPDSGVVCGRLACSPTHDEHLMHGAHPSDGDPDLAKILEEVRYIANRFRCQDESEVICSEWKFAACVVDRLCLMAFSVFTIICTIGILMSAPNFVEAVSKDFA
# assay_details: Displacement of [3H]alpha-bungarotoxin form alpha7 nAChR in rat cortex
experimental_readout: Ki (µM)
Only the number, expressed in µM, is required.

| compound_smiles | output_unit | Ki |
| --- | --- | --- |
| O=[N+]([O-])c1ccc(N2CC3CC(C2)N3)cc1 | µM | 28 |
| Clc1ccc(N2CC3CC(C2)N3)cn1 | µM | 0.0041 |

(Q) // lookup Ki for `CN1C2CC1CN(c1ccc(Cl)nc1)C2`
(A) 0.02

(Q) Query `c1cncc(N2CC3CC(C2)N3)c1` next
(A) 0.00136
